Each recorded value in this set is attributed to patent US20240116985A1.

target: full-length beta-Catenin (Uniprot ID P35222) (Homo sapiens)
Construct: 10 nM full-length beta-Catenin (Uniprot ID P35222)
Sequence (P35222 whole entry): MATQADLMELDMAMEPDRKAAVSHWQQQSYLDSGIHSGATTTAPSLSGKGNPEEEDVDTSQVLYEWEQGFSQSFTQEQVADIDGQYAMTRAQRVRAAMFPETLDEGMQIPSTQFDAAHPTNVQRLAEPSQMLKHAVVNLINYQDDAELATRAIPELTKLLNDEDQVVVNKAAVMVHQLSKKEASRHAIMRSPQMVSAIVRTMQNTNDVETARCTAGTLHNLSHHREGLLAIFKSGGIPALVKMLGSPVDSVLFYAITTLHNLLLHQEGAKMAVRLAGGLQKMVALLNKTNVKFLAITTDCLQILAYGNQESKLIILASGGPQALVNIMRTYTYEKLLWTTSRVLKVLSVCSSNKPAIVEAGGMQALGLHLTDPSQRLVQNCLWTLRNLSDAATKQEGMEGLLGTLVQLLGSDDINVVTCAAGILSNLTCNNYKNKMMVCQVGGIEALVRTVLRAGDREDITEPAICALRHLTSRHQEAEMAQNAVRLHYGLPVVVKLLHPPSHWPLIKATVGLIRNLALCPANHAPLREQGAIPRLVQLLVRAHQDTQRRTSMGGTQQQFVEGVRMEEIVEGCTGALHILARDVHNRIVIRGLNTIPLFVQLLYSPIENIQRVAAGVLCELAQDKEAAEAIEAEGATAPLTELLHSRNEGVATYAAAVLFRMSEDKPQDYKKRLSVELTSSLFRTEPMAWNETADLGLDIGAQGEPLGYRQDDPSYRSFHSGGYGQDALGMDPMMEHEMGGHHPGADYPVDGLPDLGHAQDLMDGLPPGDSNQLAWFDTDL
assayText: Fluorescence polarization IC50 (beta-catenin / 5FAM-TCF4 10-53 competition)
Type: binding
cond: fluorescence polarization; read-out: beta-Catenin FP IC50
Starred links: 1 amine or outer side, 2 acyl side, 3 side chain; linkers in the order of their positions; H or OH if unused. Positions of bridges follow the written chain, without caps; N, C: chain ends. Non-standard residues stand in square brackets, D forms with d. Residues, ends and D or L forms follow the SMILES beside them. X3 = O=C([C@]1(CC=[*:3])CCCN1[*:1])[*:2]; Bta = N[C@@H](Cc1csc2ccccc12)C(=O)O; tBuAla = CC(C)(C)C[C@H](N)C(=O)O; 3Thi = N[C@@H](Cc1ccsc1)C(=O)O; R5 = C=CCCC[C@@](C)(N)C(=O)O; S5 = C=CCCC[C@](C)(N)C(=O)O; Aib = CC(C)(N)C(=O)O
measurementType: IC50

compound="CC(=O)N1CCC[C@]12CC=CCCC[C@@](C)(C(=O)N[C@@H](CC(=O)O)C(=O)N[C@@H](CC(=O)O)C(=O)NC(C)(C)C(=O)N[C@@H](C)C(=O)N[C@@H](Cc1ccccc1)C(=O)N[C@]1(C)CCCC=CCCC[C@@](C)(C(=O)N[C@@H](C)C(N)=O)NC(=O)[C@H](Cc3csc4ccccc34)NC(=O)[C@H](Cc3ccsc3)NC(=O)[C@H](C)NC1=O)NC(=O)[C@H](CC(C)(C)C)NC(=O)[C@H](CC(=O)O)NC2=O [I-1781] (Ac-[X3]D[tBuAla][S5]DD[Aib]AF[R5]A[3Thi][Bta][S5]A-NH2; staple 1-4, 10-14 (inferred))" measurementtype=IC50 val="8.45 µM"

Turning to the following compound.
Using the record for CC(=O)N1CCC[C@]12CC=CCCCC1(CCCC=CCCCOC(=O)N3CC[C@@](C(=O)N[C@@H](Cc4ccsc4)C(=O)N[C@H](C(=O)N[C@@H](CCC(N)=O)C(N)=O)[C@H](C)c4ccc5ccccc5c4)(C3)NC(=O)[C@H](CC(C)C)NC(=O)[C@H](Cc3ccccc3)NC(=O)[C@H](C)NC(=O)[C@H](C)NC(=O)[C@H](Cc3cccc(C(=O)O)c3)NC(=O)[C@H](CC(=O)O)NC1=O)NC(=O)[C@H](CC(C)(C)C)NC(=O)[C@H](CC(=O)O)NC2=O (some centres unmarked) , state its measured IC50.
0.005 µM
